Assignment: determine reported MIC for the given compounds.
- Test system: Staphylococcus aureus MSSA (SH1000)
- assayComment: Minimum inhibitory concentration (MIC), broth microdilution
- Format: cell-based
- conditionSet: Table 1; read-out: MIC S. aureus

{"structureSmiles": "CCCCCCCCCCCC[N+](C)(C)CCN(C)CC[N+](C)(C)CCCCCCCCCCCC.[Br-].[Br-]", "targetEntity": "Staphylococcus aureus MSSA (SH1000)", "MIC": "1 µM"}
{"structureSmiles": "CCCCCCCCCCCC[N+](C)(C)CCC[N+](C)(C)CCC[N+](C)(C)CCCCCCCCCCCC.[Br-].[Br-].[I-]", "targetEntity": "Staphylococcus aureus MSSA (SH1000)", "MIC": "0.5 µM"}

Parameter requested: MIC. Apply to each item below.
1. C[N+](C)(C)CC[N+](C)(C)C
2. CCCCCCCCCCCC[N+](C)(C)CCC[N+](C)(C)CCCCCCCCCCCC.[Br-].[Br-]
3. CCCCCCCCCCCC[N+](C)(C)CCCCC[N+](C)(C)CCCCCCCCCCCC.[Br-].[Br-]
4. CCCCCCCCCCCC[N+](C)(C)CCCCCCCCCCCC.[Br-]
5. C[N+](C)(C)CCCCC[N+](C)(C)C
6. CCCCCCCCCCCC[N+](C)(C)CC[N+](C)(C)CC[N+](C)(C)CCCCCCCCCCCC.[Br-].[Br-].[I-]
7. CCCCCCCCCCCC[N+](C)(C)CCCN(C)CCC[N+](C)(C)CCCCCCCCCCCC.[Br-].[Br-]

Resp:
1. >500 µM
2. 2 µM
3. 1 µM
4. 1 µM
5. >500 µM
6. ≤0.25 µM
7. 1 µM

Req: Entry CCCCCCCCCCCC[N+](C)(C)CC[N+](C)(C)CCCCCCCCCCCC has what MIC?
Resp: 1 µM

* * *

- System: Staphylococcus aureus MSSA (SH1000)
- assayComment: Minimum inhibitory concentration (MIC), broth microdilution
- Type: cell-based
- conditionSet: Table 3; read-out: MIC S. aureus
Mark each entry 1 if its MIC sits below 2 µM, and 0 for all others.

Example entries begin here.
{"compound": "C=CC[N+](C)(CCC[N+](C)(C)CCCCCCCCCCCC)CCC[N+](C)(C)CCCCCCCCCCCC.[Br-].[Br-].[Br-] [12,3,3A,3,12]", "classification": 1}
{"compound": "CCCCCCCCCCCCCC[N+](C)(C)CCN(C)CCN(C)CCN(C)C.[Br-] [N4-14,0,0, 0]", "classification": 0}
{"compound": "CCCCCCCCCCCC[N+](C)(C)CCC[N+](C)(CCCCCCCCCCCC)CCC[N+](C)(C)CCCCCCCCCCCC.[Br-].[Br-].[Br-] [12,3,12,3,12]", "classification": 1}
{"compound": "CCCCCCCCCCCCCC[N+](C)(C)CCCCC[N+](C)(C)CCCCCCCCCCCCCC.[Br-].[Br-] [14, 5, 14]", "classification": 1}
{"compound": "C=CC[N+](C)(CC[N+](C)(C)CCCCCCCCCCCC)CC[N+](C)(CC=C)CC[N+](C)(C)CCCCCCCCCCCC.[Br-].[Br-].[Br-].[Br-] (stereo not shown) [N4-12,3A,3A,12]", "classification": 1}

Req: Dear colleague, could you confirm whether MIC of CCCCCCCCCCCCCCCC[N+](C)(C)CCN(C)CC[N+](C)(C)CCCCCCCCCCCCCCCC.[Br-].[Br-] [16, 2, 0, 2, 16] falls below 2 µM? Thanks.
Resp: 0

Req: What about this compound? CCCCCCCCCCCC[N+](C)(C)CCC[N+](C)(CCC[N+](C)(C)CCCCCCCCCCCC)Cc1ccc(CCCCCCCC)cc1.[Br-].[Br-].[Br-] [12,3,Bn-8,3,12]
Resp: 1

* * *

- Tested on: S. aureus (MSSA, SH1000) biofilms
- assayComment: Minimum biofilm eradication concentration (MBEC), regrowth assay
- Format: cell-based, Staphylococcus aureus
- conditionSet: Table 2; pre-established biofilm; ± values varied between 50 and 100 μM for the six trials
Task for the reader: assign each of the following molecules its reported MBEC S. aureus.
Answers are plain numbers, in µM.

{"molecule": "CCCCCCCCCCCC[N+](C)(C)CCC[N+](C)(C)CCCCCCCCCCCC.[Br-].[Br-]", "unit": "µM", "MBEC S. aureus": 100}
{"molecule": "CCCCCCCCCCCC[N+](C)(C)CCCN(C)CCC[N+](C)(C)CCCCCCCCCCCC.[Br-].[Br-]", "unit": "µM", "MBEC S. aureus": 100}
{"molecule": "CCCCCCCCCCC[n+]1ccc(-c2cc[n+](CCCCCCCCCCC)cc2)cc1", "unit": "µM", "MBEC S. aureus": 50}

# map each molecule to its MBEC S. aureus
1. CCCCCCCCCCCC[N+](C)(C)Cc1ccccc1.[Cl-] [Bn,12, benzyldimethyldodecylammonium chloride, reference compound]
2. CCCCCCCCCCCC[N+](C)(C)CCC[N+](C)(C)CCC[N+](C)(C)CCCCCCCCCCCC.[Br-].[Br-].[I-]

Resp:
200
100

Req: Fill blank: measured MBEC S. aureus of the molecule CCCCCCCCCCCC[N+](C)(C)CC[N+](C)(C)CC[N+](C)(C)CCCCCCCCCCCC.[Br-].[Br-].[I-] is ____.
Resp: 50

* * *

- Test system: Staphylococcus aureus MSSA (SH1000)
- assayComment: Minimum inhibitory concentration (MIC), broth microdilution
- Type: cell-based
- conditionSet: Table 4; SH1000; read-out: MIC MSSA
Assignment: determine reported MIC for the given compounds.
One number for each entry, in µM.

These solved cases illustrate the format of a correct answer.
{"compound": "C=CC[N+](C)(CC[N+](C)(C)CCCCCCCCCCCC)CC[N+](C)(CC=C)CC[N+](C)(C)CCCCCCCCCCCC.[Br-].[Br-].[Br-].[Br-] (stereo not drawn)", "MIC (µM)": 1}
{"compound": "CCCCCCCCCCCC[N+](C)(C)CCCN(C)CCC[N+](C)(C)CCCCCCCCCCCC.[Br-].[Br-]", "MIC (µM)": 1}

Now, please, on to the next compound.
Req: Could you share which MIC value was measured for CCCCCCCCCCCC[N+](C)(C)CCC[N+](C)(CCCC)CCC[N+](C)(C)CCCCCCCCCCCC.[Br-].[Br-].[Br-] ?
Resp: 1

* * *

- Tested on: Enterococcus faecalis (OG1RF)
- assayComment: Minimum inhibitory concentration (MIC), broth microdilution
- Type: cell-based
- conditionSet: Table 3; read-out: MIC E. faecalis
For each record, write down the corresponding log10(MIC).
Scale type: logarithmic (base 10). Underlying MIC unit: µM.

{"molecule": "C=CC[N+](C)(CC[N+](C)(C)CCCCCCCCCCCC)CC[N+](C)(C)CCCCCCCCCCCC.[Br-].[Br-].[Br-] [12,2,3A,2,12]", "targetEntity": "Enterococcus faecalis (OG1RF)", "log10(MIC)": 0.30}
{"molecule": "C=CC[N+](C)(CC[N+](C)(C)CCCCCCCCCCC)CC[N+](C)(C)CCCCCCCCCCC.[Br-].[Br-].[Br-] [11, 2, 3A, 2, 11]", "targetEntity": "Enterococcus faecalis (OG1RF)", "log10(MIC)": 0.30}
{"molecule": "CCCCCCCCCCCC[N+](C)(C)CCC[N+](C)(C)CCC[N+](C)(C)CCCCCCCCCCCC.[Br-].[Br-].[I-] [12,3,1,3,12]", "targetEntity": "Enterococcus faecalis (OG1RF)", "log10(MIC)": 0.30}
{"molecule": "CCCCCCCCCCCC[N+](C)(C)CCC[N+](C)(CCCC)CCC[N+](C)(C)CCCCCCCCCCCC.[Br-].[Br-].[Br-] [12,3,4,3,12]", "targetEntity": "Enterococcus faecalis (OG1RF)", "log10(MIC)": 0.00}

Each of the following entries comes with a recorded value; kindly state log10(MIC) for each.
1. C=CC[N+](C)(CC[N+](C)(C)CCCCCCCCCCCCCC)CC[N+](C)(C)CCCCCCCCCCCCCC.[Br-].[Br-].[Br-] [14, 2, 3A, 2, 14]
2. CCCCCCCCCCCCCC[N+](C)(C)CCN(C)CCN(C)CCN(C)C.[Br-] [N4-14,0,0, 0]
3. CCCCCCCCCCCC[N+](C)(C)CCCCCCC[N+](C)(C)CCCCCCCCCCCC.[Br-].[Br-] [12, 7, 12]
4. CCCCCCCCCCCCCCCC[N+](C)(C)CCCCC[N+](C)(C)CCCCCCCCCCCCCCCC.[Br-].[Br-] [16,5,16]

Resp:
[0.30, 1.20, 0.00, 0.30]

Value sought for every listed molecule: log10(MIC).
1. CCCCCCCCCCCCCC[N+](C)(C)CC[N+](C)(C)CC[N+](C)(C)CCCCCCCCCCCCCC.[Br-].[Br-].[I-] [14, 2, 1, 2, 14]
2. CCCCCCCCCCCC[N+](C)(C)CCC[N+](C)(CCC[N+](C)(C)CCCCCCCCCCCC)Cc1ccccc1.[Br-].[Br-].[Br-] [12,3,Bn,3,12]
3. CCCCCCCCCC[N+](C)(C)CCN(C)CC[N+](C)(C)CCCCCCCCCC.[Br-].[Br-] [10, 2, 0, 2, 10]
4. CCCCCCCCCCCCCC[N+](C)(C)CCCCC[N+](C)(C)CCCCCCCCCCCCCC.[Br-].[Br-] [14, 5, 14]
5. CCCCCCCCCCCC[N+](C)(C)CCC[N+](C)(CCC[N+](C)(C)CCCCCCCCCCCC)Cc1ccc(CCCCCCCC)cc1.[Br-].[Br-].[Br-] [12,3,Bn-8,3,12]

Resp:
1. 0.00
2. 0.00
3. 0.90
4. 0.00
5. 0.00

Give log10(MIC) for all molecules that follow.
1. CCCCCCCCCCCC[N+](C)(C)CCCCC[N+](C)(C)CCCCCCCCCCCC.[Br-].[Br-] [12,5,12]
2. CCCCCCCCCCCC[N+](C)(C)CCN(C)CCN(C)CCN(C)C.[Br-] [N4-12,0,0, 0]

Resp:
1. 0.00
2. 0.90

Go through the list and state log10(MIC) for each entry.
1. CCCCCCCCCC[N+](C)(C)CC[N+](C)(C)CC[N+](C)(C)CCCCCCCCCC.[Br-].[Br-].[I-] [10, 2, 1, 2, 10]
2. C=CC[N+](C)(CC[N+](C)(C)CCCCCCCCCC)CC[N+](C)(C)CCCCCCCCCC.[Br-].[Br-].[Br-] [10, 2, 3A, 2, 10]
3. CCCCCCCCCCCC[N+](C)(C)Cc1ccccc1.[Cl-] [Bn,12, benzyldimethyldodecylammonium chloride, reference compound]
4. CCCCCCCCCCCC[N+](C)(C)CCN(C)CCN(C)CC[N+](C)(C)CCCCCCCCCCCC.[Br-].[Br-] [N4-12,0,0,12]
5. CCCCCCCCCCCC[N+](C)(C)CCN(C)CC[N+](C)(C)CCCCCCCCCCCC.[Br-].[Br-] [12,2,0,2,12]
6. CCCCCCCCCCCC[N+](C)(C)CCC[N+](C)(CCCCCCCCCCCC)CCC[N+](C)(C)CCCCCCCCCCCC.[Br-].[Br-].[Br-] [12,3,12,3,12]
7. CCCCCCCCCCCCCC[N+](C)(C)CCN(C)CC[N+](C)(C)CCCCCCCCCCCCCC.[Br-].[Br-] [14, 2, 0, 2, 14]

Resp:
1: 0.90; 2: 0.60; 3: 0.90; 4: 0.00; 5: 0.00; 6: 0.00; 7: 0.00

I have 3 molecules here; please give me log10(MIC) for each one.
1. C=CC[N+](C)(CCC[N+](C)(C)CCCCCCCCCCCC)CCC[N+](C)(C)CCCCCCCCCCCC.[Br-].[Br-].[Br-] [12,3,3A,3,12]
2. CCCCCCCCCCCCCC[N+](C)(C)CCN(C)CCN(C)CC[N+](C)(C)CCCCCCCCCCCC.[Br-].[Br-] [N4-14,0,0, 12]
3. CCCCCCCCCCCCCCCC[N+](C)(C)CCN(C)CC[N+](C)(C)CCCCCCCCCCCCCCCC.[Br-].[Br-] [16, 2, 0, 2, 16]

Resp:
[0.30, 0.00, 0.30]
